These measurements were taken from PubChem BioAssay (NCI).

- Test system: HL-60(TB) leukemia
- test: NCI-60 one-dose screen, 48 h
- stated.conditions: 10 µM unless noted
- Procedure: Growth inhibition of the HL-60(TB) human tumor cell line is measured as a screen for anti-cancer activity. Cells are grown in 96 well plates and exposed to the test compound for 48 hours. Compounds are tested at a single concentration, which is 10^-5 M for most compounds. The reported endpoint is percent growth (GI% or GIPRCNT), where numbers from 0 - 100% represent growth inhibition, and numbers from -100% - 0 represent cell death. For example, a value of 40 represents 60% growth inhibition. […]
Compounds without any hit were thinned out: in the full panel of roughly 83,000, 20% have a hit. Activity calls are given as the source filed them. Rule for the calls: active = growth percent below 10; inactive = the rest.
Possible outcomes: True (active), False (inactive)

N#CC1=C(N)n2nc(-c3ccncc3)nc2NC1c1cccc2ccccc12 (stereo not given)
False
Cc1ccc(N(CC2=NCCN2)c2cccc(O)c2)cc1
False
O=C1Nc2ccccc2SC1c1ccccc1Cl (stereo not given)
False
COc1cccc(CCC2CCCN(c3cc(C)nc(N)n3)C2)c1 (stereo not given)
True
COc1cccc(O)c1O
False
Cc1[nH]n(C(=O)c2ccncc2)c(=O)c1N=Nc1ccc(F)c(Cl)c1
False
C#Cc1cccc(Nc2ncnc3cc(OC)c(OCCCCCCC(=O)NO)cc23)c1
True
COc1cc(/C=N/NC(=O)Cn2c(-c3ccc(C)o3)nc3ccccc32)ccc1OCc1ccccc1
False
COc1cc(OC)c2c(c1)c1nc3cc(C)c(C)cc3nc1n2CCN(C)C
False
COc1ccc2oc3c(C)c4c(c(C)c3c2c1)C(=O)N(Cc1ccccc1)C4=O
False
N#Cc1nn(-c2cc(=O)[nH]c3ccc(Cl)cc23)c(N)c1C#N
True
O=[N+]([O-])c1cccc(-c2nc3cc4nc5ccccc5[nH]c4cc3n2)c1
False
COc1cccc(C(=O)NNc2nc(N3CCN(C4CCCCC4)CC3)nc(N3CCN(C(c4ccccc4)c4ccccc4)CC3)n2)c1
False
Clc1ccc(CNc2c3ccccc3nc3ccccc23)cc1
False
COC(=O)[C@H](NC(=O)C1(C)CCC[C@]2(C)[C@H]3C[C@H]4C(C(C)C)=C[C@]3(CC[C@@H]12)[C@@H]1C(=O)CCC(=O)[C@@H]14)C(C)C (stereo not given in full)
False
CCCC(=O)Oc1ccc(/C(=C(\C)c2ccccc2)c2ccc(OCCN(CC)CC)cc2)cc1
False
O=C(CC(=O)c1ccccc1F)Nc1ccc([N+](=O)[O-])cc1
False
COc1cccc(/C=C/C(=O)c2cc3c(N)c(C(=O)Nc4ccccc4)sc3nc2C)c1
False
O=C(/C=C/c1ccccc1)c1cccc(OCCCOc2cccc(C(=O)/C=C/c3ccccc3)c2)c1
False
OCC(O)C(O)CC1SCCS1 (stereo not given)
False
N#Cc1c(-c2cccs2)cc(-c2cccnc2)[nH]c1=O
False
Cn1c(=O)c2[nH]c(CCCCC(=O)O)nc2n(C)c1=O
False
COc1ccc(/C=C2\CCCC3=C2N=C2SC(C)=CN2C3c2ccc(OC)cc2)cc1 (stereo not given)
False
COc1ccccc1CNCCCN1C(=O)c2ccc3c4c(ccc(c24)C1=O)C(=O)N(CCCNCCCCNCCCCN)C3=O
True
COc1ccc(-c2ccc3cnc4sc(-c5ccc(OC)cc5)nc4c3n2)cc1
False
Clc1cc(Cl)cc(N2N=C(c3cccc(Nc4ccncc4)c3)CC2c2ccc3c(c2)OCO3)c1 (stereo not given)
True
O=[P@@]1(c2ccccc2)O[C@H](COCc2ccccc2)[C@@H](OCc2ccccc2)[C@H](OCc2ccccc2)[C@H]1NCc1ccccc1
True
COc1ccc(-c2csc(NC(=O)CN3CCN(c4cc5c(cc4F)c(=O)c(C(=O)O)cn5C4CC4)CC3)n2)cc1
True
O=C(Nc1cccc(Cl)c1)OCC(COC(=O)Nc1cccc(Cl)c1)(COC(=O)Nc1cccc(Cl)c1)[N+](=O)[O-]
False
CCC(=O)Oc1ccc(-c2ccccc2)cc1Br
False
CNCCCNCCCCNCCCN1C(=O)c2ccc3c4c(ccc(c24)C1=O)C(=O)N(CCCNCc1ccccc1OC)C3=O
False
CNCc1cccc2c1OCCOCCOCCN(CCN1CCOCC1)S(=O)(=O)c1ccc(cc1)-c1cnc(N)c(n1)C(=O)N2
True
CC(=O)c1c(-c2ccc(OC(F)(F)F)cc2)nc2ccccn12
False
COC(=O)[C@H]1[C@H](OC)[C@@H](OC(=O)/C=C/c2ccncc2)CC2CN3CCc4c([nH]c5cc(OC)ccc45)[C@@H]3C[C@@H]21 (stereo not given in full)
False
O=[N+]([O-])c1ccc2[nH]cc(-c3c4ccsc4cc4[nH]c5ccc([N+](=O)[O-])cc5c34)c2c1
True
O=C(O)c1cn(-c2ccccc2)nc1-c1ccc(O)cc1
False
O=c1c2c(c3ccccc3n1-c1ccccc1)NC(=S)NC2c1ccccc1 (stereo not given)
False
O=C(OCC1CCCO1)c1ccc([N+](=O)[O-])cc1 (stereo not given)
False
CCOC(=O)C(=Cc1cccc(Cl)c1)C(=O)OCC
True
Cc1nc(NC(=O)N2CCC[C@H]2C(N)=O)sc1-c1ccnc(C(C)(C)C(F)(F)F)c1
False

* * *

Recorded growth for the following compounds
- Test system: HL-60(TB) leukemia
- test: NCI-60 one-dose screen, 48 h (100 = growth as untreated, 0 = no growth, -100 = all killed)
- stated.conditions: 10 µM unless noted
This is part of a sample that, as a whole, favours compounds with a hit. Of some 83,000 tested, about 20% had one in any assay.
measured.parameter: growth (%)

CCCCn1c(=O)c(C2CNC(=O)c3ccccc3N2)cc2ccccc21 (stereo not given)
96.7
C=C1CC[C@@H]2[C@](C)(COC(C)=O)[C@H](OC(C)=O)CC[C@@]2(C)[C@@H]1CC(Nc1ccc(S(=O)(=O)Nc2cc(C)on2)cc1)C1=CCOC1=O (stereo not given in full)
-2.05
CCCCCCCCCCCCCCCCCCOc1ccccc1CC(=O)NCC[N+]1(C)CCCC1
39.7
O=c1ccn2nc3ccccc3c2[nH]1
93.1
O=C(Cc1ccc(/C=C/C(=O)c2ncc[nH]2)cc1)Nc1ccc(C(F)(F)F)cc1
-5.94

* * *

- System: HL-60(TB) leukemia
- test: NCI-60 one-dose screen, 48 h
- stated.conditions: 10 µM unless noted
The panel holds about 83,000 compounds, 20% with a hit somewhere; the sample as a whole holds those more often. The source made the active and inactive calls. Rule for the calls: active = growth percent below 10; inactive = the rest.
Classes used: active, inactive

CCN(CC)CCOC(=O)c1cccnc1
inactive
Nc1nc(N)c2[nH]cnc2n1
inactive
O=C(NC(=S)Nc1ccc(-c2nc3ccccc3[nH]2)cc1)c1ccc2ccccc2c1
inactive
COc1ccc(/C=C/C(=O)/C=C(/C=C/c2ccc(OC)c(OC)c2)OB(F)F)cc1OC
inactive
CCOC(=O)/C=C/c1cc2cc(-c3csc4ccccc34)ccc2[nH]1
inactive
CCCCCCCCCCCCCCNc1nc(CO)ncc1-c1ccc(C(F)(F)F)cc1
inactive
CN(C)CCn1c(=O)c2c3cc4c(cc3n(CCN(C)C)c2c2ccc(Cl)cc21)OCO4
inactive
COc1ccc2c(c1)C(=O)/C(=C/c1ccc([N+](=O)[O-])o1)O2
active
N#CC1c2ccccc2C=CN1C(=O)CCCl (configuration not stated)
inactive
COc1ccc(-c2nc(NN)c3c(C)nn(-c4ccc(F)cc4)c3n2)cc1
active
CCCCC1(CC)COC(CCC)OC1 (configuration not stated)
inactive
OB(O)c1ccccc1
inactive

* * *

# growth listing for each entry below
- Test system: HL-60(TB) leukemia
- test: NCI-60 one-dose screen, 48 h (100 = growth as untreated, 0 = no growth, -100 = all killed)
- stated.conditions: 10 µM unless noted
- Experimental: Growth inhibition of the HL-60(TB) human tumor cell line is measured as a screen for anti-cancer activity. Cells are grown in 96 well plates and exposed to the test compound for 48 hours. Compounds are tested at a single concentration, which is 10^-5 M for most compounds. The reported endpoint is percent growth (GI% or GIPRCNT), where numbers from 0 - 100% represent growth inhibition, and numbers from -100% - 0 represent cell death. For example, a value of 40 represents 60% growth inhibition. […]
This is part of a sample that, as a whole, favours compounds with a hit. Of some 83,000 tested, about 20% had one in any assay.
measured.parameter: growth (%)

NC(=S)Cc1ccccc1
99.1
COC(=O)c1ccc(NC(=O)CSc2nc3ccccc3c(=O)n2-c2ccccc2)cc1
93.2
C=C(C)[C@@H]1CC[C@]2(C(=O)N=C=S)CC[C@]3(C)[C@H](CC[C@@H]4[C@@]5(C)CCC(=O)C(C)(C)[C@@H]5CC[C@]43C)[C@@H]12
-2.27
N#Cc1c(NC(=O)c2ccco2)[n+]([O-])c2ccccc2[n+]1[O-]
81.4
COc1ccccc1CNCCCN1C(=O)c2ccc3c4c(ccc(c24)C1=O)C(=O)N(CCCNCc1ccccc1OC)C3=O
-67.5

* * *

- Test system: HL-60(TB) leukemia
- test: NCI-60 one-dose screen, 48 h
- stated.conditions: 10 µM unless noted
- Method: Growth inhibition of the HL-60(TB) human tumor cell line is measured as a screen for anti-cancer activity. Cells are grown in 96 well plates and exposed to the test compound for 48 hours. Compounds are tested at a single concentration, which is 10^-5 M for most compounds. The reported endpoint is percent growth (GI% or GIPRCNT), where numbers from 0 - 100% represent growth inhibition, and numbers from -100% - 0 represent cell death. For example, a value of 40 represents 60% growth inhibition. […]
This is part of a sample that, as a whole, favours compounds with a hit. Of some 83,000 tested, about 20% had one in any assay. Active and inactive are the calls of the source. The calls were made as follows: active = growth percent below 10; inactive = the rest.
Labels: active, inactive

C/C(=N\NC(=O)c1sc(=S)n(C)c1N)c1cc2ccccc2o1
inactive
O=C(CCl)Nc1ccccc1SCc1cc(Cl)cc2c1OCOC2
inactive
CC1(C)CC[C@]2(C(N)=O)CC[C@]3(C)C(=CC[C@@H]4[C@@]5(C)C/C(=C/c6ccncc6)C(=O)C(C)(C)[C@@H]5CC[C@]43C)[C@@H]2C1
active
O[C@@H]1Cc2ccc3ccccc3c2N[C@H](c2ccoc2)C1
inactive
N#Cc1c(-c2ccc(F)cc2)nc(N=Nc2c(O)[nH]c3ccc(Cl)cc23)nc1N1CCOCC1
inactive
COc1ccc(/C=N/NC(=O)CCN2c3ccccc3Sc3ccccc32)cc1
inactive
COc1cc(-c2nc(SCCC(C)C)nc(Nc3ccccc3Cl)c2C#N)cc(OC)c1OC
inactive
CCCCCCCCn1ccc2cc(NC(=O)Cn3cc(CN4CCCC4)nn3)ccc21
inactive
CCN(CC)CCCC(C)N=c1cc(Nc2cc(=NC(C)CCCN(CC)CC)c3cc(OC)ccc3o2)oc2ccc(OC)cc12 (stereo not given)
active
Oc1c(Cl)cc(Cl)c2ccc(Cn3cc(-c4cc(F)cc(F)c4)nn3)nc12
active
Cc1oc2nc[nH]c(=O)c2c1C(=O)/C=C/c1ccc(Cl)cc1
active
O=[N+]([O-])c1cc(S(=O)(=O)c2ccc(F)c([N+](=O)[O-])c2)ccc1F
inactive
COc1ccccc1NC(=O)Cn1cc(CN2CCN(c3ccnc4cc(Cl)ccc34)CC2)nn1
inactive
CCC1S/C(=N\N=C(/C)c2ccco2)N(c2ccccc2)C1=O (stereo not given)
inactive
CCN(CC)CCn1c(=N)n(CC(O)c2ccc(Cl)c(Cl)c2)c2ccccc21 (stereo not given)
inactive
COc1ccc(Nc2ncccc2C(=O)NCc2cn(Cc3cccc(Oc4ccccc4)c3)nn2)c(OC)c1
inactive
COc1cc2cc(Oc3ccc(NC(=O)c4cccc(C(F)(F)F)c4)cc3)c(C)nc2cc1OC
inactive
O=C1c2cc3c(cc2-c2c1c1cc(Cl)c(Cl)cc1c(=O)n2C[C@H](O)CO)OCO3
active
CCN(CC)CCC(=O)c1cccc2ccccc12
inactive
Clc1ccc2c(NCCCNCc3ccc4c(c3)OCO4)ccnc2c1
inactive
